Each recorded value in this set is attributed to patent US20230303690A1.

Catalogue of pEC50 readings, one per entry.
# TARGET: T1, human LAG3 expressed on cells (human, UniProt P18627 23-525)
# T1 construct: whole, on cells
# T1 sequence (looked up): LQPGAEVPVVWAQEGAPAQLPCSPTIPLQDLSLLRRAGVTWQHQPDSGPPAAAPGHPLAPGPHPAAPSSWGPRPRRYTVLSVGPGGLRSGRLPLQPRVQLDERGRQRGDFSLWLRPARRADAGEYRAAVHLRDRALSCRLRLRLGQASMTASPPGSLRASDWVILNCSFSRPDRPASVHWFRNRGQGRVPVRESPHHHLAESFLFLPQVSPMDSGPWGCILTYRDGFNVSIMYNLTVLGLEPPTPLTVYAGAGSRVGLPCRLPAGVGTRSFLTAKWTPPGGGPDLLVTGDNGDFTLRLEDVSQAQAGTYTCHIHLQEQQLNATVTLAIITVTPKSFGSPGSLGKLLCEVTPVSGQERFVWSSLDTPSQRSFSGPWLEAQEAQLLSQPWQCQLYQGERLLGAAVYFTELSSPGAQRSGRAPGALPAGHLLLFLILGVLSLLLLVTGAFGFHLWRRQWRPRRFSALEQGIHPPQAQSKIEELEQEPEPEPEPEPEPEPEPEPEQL
# EXPERIMENT DESCRIPTION: cell ELISA, 293T-hLAG3 cells
# reply with the number alone; pEC50 is -log10 of concentration in mol/L

For orientation, consider the following solved cases.
Recorded pEC50 for sdAb No. 17 (VHH, Fc of the tested form not described; also called sdAb 17; not shown: Fc part implied by anti-human Fc capture and anti-human IgG1 Fc detection) VHH: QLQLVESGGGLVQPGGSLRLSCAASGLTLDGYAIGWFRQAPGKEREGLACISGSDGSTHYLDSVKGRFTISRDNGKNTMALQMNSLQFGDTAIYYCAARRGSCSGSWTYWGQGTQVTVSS , please?
9.04

Recorded pEC50 for sdAb No. 27 (VHH, Fc of the tested form not described; also called sdAb 27; not shown: Fc part implied by anti-human Fc capture and anti-human IgG Fc detection) VHH: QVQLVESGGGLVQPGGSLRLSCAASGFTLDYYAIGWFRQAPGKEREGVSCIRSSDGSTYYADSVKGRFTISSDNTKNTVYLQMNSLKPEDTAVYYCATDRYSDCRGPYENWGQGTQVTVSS , please?
8.93

Recorded pEC50 for sdAb No. 17-H4 (VHH, Modified sdAb No. 17 (CDR2 DG to EG); not shown: Fc part implied by anti-human IgG1 Fc detection) VHH: QLQLVESGGGLVQPGGSLRLSCAASGLTLDGYAIGWFRQAPGKEREGLACISGSEGSTHYLDSVKGRFTISRDNGKNTMALQMNSLQFGDTAIYYCAARRGSCSGSWTYWGQGTQVTVSS , please?
9.12

Others:
Recorded pEC50 for sdAb No. 17-H3 (VHH, Modified sdAb No. 17 (CDR2 DG to DA); not shown: Fc part implied by anti-human IgG1 Fc detection) VHH: QLQLVESGGGLVQPGGSLRLSCAASGLTLDGYAIGWFRQAPGKEREGLACISGSDASTHYLDSVKGRFTISRDNGKNTMALQMNSLQFGDTAIYYCAARRGSCSGSWTYWGQGTQVTVSS , please?
8.99
